Hey, just so you know, these numbers are from a melting point compilation (Tetko et al.; mined from patent text by program, amines drawn as free bases though some values may be those of a salt).

Recorded melting point by entry

{"columns": ["Molecule", "melting point"],
 "data": [
  ["COc1cc2ccc(-c3ccccc3N)cc2cc1OC", "215 to 217 °C"],
  ["Cc1cccc2nc(-c3ccccc3)n(C3CCC(=O)NC3=O)c(=O)c12 (stereo not given)", "298 to 300 °C"],
  ["CCOC(=O)c1c(CCl)nc2cc(OC)c(OC)cc2c1-c1ccc(OC)c(OC)c1", "147 to 148 °C"],
  ["CC1C(=O)NC2=Nc3ccc(OCCCCC(=O)N(CCO)C4CCCCC4)c(Cl)c3CN21 (stereo not given)", "206 to 208 °C"],
  ["COC(=O)C1(NC(=O)Cc2cc(-c3ccc(Cl)cc3)ccc2Cl)CCC(C)(C)CC1", "128 °C"]
]}
